# System: NCI-H929 complex spheroids, viability % test/control
# EXPERIMENT DESCRIPTION: Anticancer human tumor NCI-H929 cell line growth inhibition [RAS];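 note: compound exposure lasted seven days before viability was read; 100% = DMSO vehicle control viability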
# CONDITION SET: second compound 0.1 µM; first compound 0.0316 µM; stronger effect = lower value
ENDPOINT LABEL: viability, T/C (%)
Supply the numeric figure in %, leaving out any unit text.

{"columns": ["COMPOUND", "MEASURED RESULT"],
 "data": [
  ["C=CC(=O)Nc1cc(Nc2nccc(-c3cn(C)c4ccccc34)n2)c(OC)cc1N(C)CCN(C)C + C#Cc1c(F)ccc2cc(O)cc(-c3ncc4c(N5CC6CCC(C5)N6)nc(OCC56CCCN5CC(F)C6)nc4c3F)c12", 102]
]}

Qu. Checklist item: viability, T/C tested on NCI-H929 complex spheroids, viability % test/control, entry CCC(CC)c1cc(NC2CCC(N)C2)n2nccc2n1 (stereo not drawn) + C=CC(=O)N1CCN(c2nc(OCC3CCCN3C)nc3c(F)c(-c4nc(N)cc(C)c4C(F)(F)F)c(Cl)cc23)C(C)C1 , value?
Ans. 95.9

Qu. CC(Nc1ccc2c(c1)OCCn1cc(N3C(=O)OCC3C(F)F)nc1-2)C(N)=O (stereo not drawn) + C=CC(=O)N1CCN(c2nc(OCC3CCCN3C)nc3c(F)c(-c4nc(N)cc(C)c4C(F)(F)F)c(Cl)cc23)C(C)C1 , same question.
Ans. 97.8

###

# System: NCI-H929 complex spheroids, viability % test/control
# EXPERIMENT DESCRIPTION: Anticancer human tumor NCI-H929 cell line growth inhibition [RAS];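 note: compound exposure lasted seven days before viability was read; 100% = DMSO vehicle control viability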
# CONDITION SET: second compound 0.03 µM; first compound 0.0316 µM; stronger effect = lower value
ENDPOINT LABEL: viability, T/C (%)
API: value field is a number in %; no unit string.

Solved cases (7 shown):
{"columns": ["MOLECULE", "SYSTEM NAME", "DISPLAY UNIT", "viability, T/C"],
 "data": [
  ["NC1c2ccccc2OC12CCN(c1cnc3c(N4CCCc5ncccc54)n[nH]c3n1)CC2 (stereo not drawn) + CCn1c(-c2cccnc2C(C)OC)c2c3cc(ccc31)N1CCOC(CC(NC(=O)C(C(C)C)N(C)C(=O)C3(F)CCN(C(=O)C#CC(C)(C)N(C)C)CC3)C(=O)N3CCCC(N3)C(=O)OCC(C)(C)C2)C1", "NCI-H929 complex spheroids, viability % test/control", "%", 97.7],
  ["CC1(O)CCCC1n1c(=O)c(C(F)F)cc2cnc(NC3CCN(S(C)(=O)=O)CC3)nc21 (stereo not drawn) + CCn1c(-c2cc(N3CCN(C)CC3)cnc2C(C)OC)c2c3cc(ccc31)-c1csc(n1)CC(NC(=O)C1CC1C)C(=O)N1CCCC(N1)C(=O)OCC(C)(C)C2", "NCI-H929 complex spheroids, viability % test/control", "%", 72.2],
  ["CC(C)NCC(C(=O)N1CCN(c2ncnc3c2C(C)CC3O)CC1)c1ccc(Cl)cc1 (stereo not drawn) + CCn1c(-c2cccnc2C(C)OC)c2c3cc(ccc31)N1CCOC(CC(NC(=O)C(C(C)C)N(C)C(=O)C3(F)CCN(C(=O)C#CC(C)(C)N(C)C)CC3)C(=O)N3CCCC(N3)C(=O)OCC(C)(C)C2)C1", "NCI-H929 complex spheroids, viability % test/control", "%", 101],
  ["C[C@@H](NC(=O)c1ncnc(N)c1Cl)c1ncc(C(=O)Nc2cc(C(F)(F)F)c(Cl)cn2)s1 + CCn1c(-c2cc(N3CCN(C)CC3)cnc2C(C)OC)c2c3cc(ccc31)-c1csc(n1)CC(NC(=O)C1CC1C)C(=O)N1CCCC(N1)C(=O)OCC(C)(C)C2", "NCI-H929 complex spheroids, viability % test/control", "%", 114],
  ["CCC(CC)c1cc(NC2CCC(N)C2)n2nccc2n1 (stereo not drawn) + CCn1c(-c2cccnc2C(C)OC)c2c3cc(ccc31)N1CCOC(CC(NC(=O)C(C(C)C)N(C)C(=O)C3(F)CCN(C(=O)C#CC(C)(C)N(C)C)CC3)C(=O)N3CCCC(N3)C(=O)OCC(C)(C)C2)C1", "NCI-H929 complex spheroids, viability % test/control", "%", 97.3],
  ["CCN1CCN(Cc2ccc(Nc3ncc(F)c(-c4cc(F)c5nc(C)n(C(C)C)c5c4)n3)nc2)CC1 + CCn1c(-c2cccnc2C(C)OC)c2c3cc(ccc31)N1CCOC(CC(NC(=O)C(C(C)C)N(C)C(=O)C3(F)CCN(C(=O)C#CC(C)(C)N(C)C)CC3)C(=O)N3CCCC(N3)C(=O)OCC(C)(C)C2)C1", "NCI-H929 complex spheroids, viability % test/control", "%", 106],
  ["Cc1nc(N2CCC3(CC2)COC(C)C3N)c(CO)nc1Sc1ccnc(N)c1Cl (stereo not drawn) + CCn1c(-c2cc(N3CCN(C)CC3)cnc2C(C)OC)c2c3cc(ccc31)-c1csc(n1)CC(NC(=O)C1CC1C)C(=O)N1CCCC(N1)C(=O)OCC(C)(C)C2", "NCI-H929 complex spheroids, viability % test/control", "%", 31.8]
]}

Qu. Name the recorded viability, T/C for CC(=O)OC12COC1CC(O)C1(C)C(=O)C(O)C3=C(C)C(OC(=O)C(O)C(NC(=O)OC(C)(C)C)c4ccccc4)CC(O)(C(OC(=O)c4ccccc4)C21)C3(C)C (stereo not drawn) + CCn1c(-c2cccnc2C(C)OC)c2c3cc(ccc31)N1CCOC(CC(NC(=O)C(C(C)C)N(C)C(=O)C3(F)CCN(C(=O)C#CC(C)(C)N(C)C)CC3)C(=O)N3CCCC(N3)C(=O)OCC(C)(C)C2)C1 .
Ans. 0.73
